Parameter koff: see the listing below.
# measured on: canine FcRn with a poly-His tag and canine B2M heterodimer complex (canine)
# Sequence (chain, as listed by the source limits assumed, form in doubt, chain 1 of 2): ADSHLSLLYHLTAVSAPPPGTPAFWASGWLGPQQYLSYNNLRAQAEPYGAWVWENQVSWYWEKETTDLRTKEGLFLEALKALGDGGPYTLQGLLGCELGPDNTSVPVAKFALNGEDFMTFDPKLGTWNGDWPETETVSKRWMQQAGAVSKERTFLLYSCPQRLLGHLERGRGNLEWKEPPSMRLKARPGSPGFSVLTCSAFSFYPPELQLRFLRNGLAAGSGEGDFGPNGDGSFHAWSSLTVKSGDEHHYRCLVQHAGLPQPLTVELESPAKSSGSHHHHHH
# Sequence (b2m, as listed by the source limits assumed, form in doubt, chain 2 of 2): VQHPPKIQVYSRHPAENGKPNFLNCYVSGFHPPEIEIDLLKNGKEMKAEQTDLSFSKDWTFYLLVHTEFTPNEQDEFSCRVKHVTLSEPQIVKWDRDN
# test summary: SPR (Biacore T200) at pH 6.0, biotinylated FcRn/B2M immobilised, Fc as analyte
Report the figure in s⁻¹ without appending any unit label.

GET /value?item= wild-type canine IgG-B Fc polypeptide (protein, not shown: small tags and cut ends) PAPEMLGGPSVFIFPPKPKDTLLIARTPEVTCVVVDLDPEDPEVQISWFVDGKQMQTAKTQPREEQFNGTYRVVSVLPIGHQDWLKGKQFTCKVNNKALPSPIERTISKARGQAHQPSVYVLPPSREELSKNTVSLTCLIKDFFPPDIDVEWQSNGQQEPESKYRTTPPQLDEDGSYFLYSKLSVDKSRWQRGDTFICAVMHEALHNHYTQESLSHSPGK &field=koff returns 0.122

GET /value?item= variant canine IgG-B polypeptide L(23)S (protein, not shown: small tags and cut ends) PAPEMLGGPSVFIFPPKPKDTLSIARTPEVTCVVVDLDPEDPEVQISWFVDGKQMQTAKTQPREEQFNGTYRVVSVLPIGHQDWLKGKQFTCKVNNKALPSPIERTISKARGQAHQPSVYVLPPSREELSKNTVSLTCLIKDFFPPDIDVEWQSNGQQEPESKYRTTPPQLDEDGSYFLYSKLSVDKSRWQRGDTFICAVMHEALHNHYTQESLSHSPGK &field=koff returns 0.241

GET /value?item= variant canine IgG-B Fc polypeptide L(23)Y (protein, not shown: small tags and cut ends) PAPEMLGGPSVFIFPPKPKDTLYIARTPEVTCVVVDLDPEDPEVQISWFVDGKQMQTAKTQPREEQFNGTYRVVSVLPIGHQDWLKGKQFTCKVNNKALPSPIERTISKARGQAHQPSVYVLPPSREELSKNTVSLTCLIKDFFPPDIDVEWQSNGQQEPESKYRTTPPQLDEDGSYFLYSKLSVDKSRWQRGDTFICAVMHEALHNHYTQESLSHSPGK &field=koff returns 0.0138

GET /value?item= variant canine IgG-B Fc polypeptide L(23)M (protein, not shown: small tags and cut ends) PAPEMLGGPSVFIFPPKPKDTLMIARTPEVTCVVVDLDPEDPEVQISWFVDGKQMQTAKTQPREEQFNGTYRVVSVLPIGHQDWLKGKQFTCKVNNKALPSPIERTISKARGQAHQPSVYVLPPSREELSKNTVSLTCLIKDFFPPDIDVEWQSNGQQEPESKYRTTPPQLDEDGSYFLYSKLSVDKSRWQRGDTFICAVMHEALHNHYTQESLSHSPGK &field=koff returns 0.126
